# System: Candida tropicalis
# Method: Antifungal activity against Candida tropicalis C131-2000 after 48 hrs by broth microdilution technique
# Assay type: functional
# Condition Context: C131-2000, 48 h
Property: MIC; scope: individual compounds
Numeric only. Scale: µg/mL

Some solved entries appear below for comparison.
CC(=O)N1CCN(c2ccc(OCC3COC(Cn4ccnc4)(c4ccc(Cl)cc4Cl)O3)cc2)CC1 (centres undefined) [KETOCONAZOLE]    1.56
CN(C/C=C/C#CC(C)(C)C)Cc1cccc2ccccc12 [TERBINAFINE]    1.56

Then there is this compound:
Output reported MIC of the compound C[C@@H]1[C@H](O)[C@@H](C)/C=C/C=C/C=C/C=C/C=C/C=C/C=C/[C@H](O[C@@H]2O[C@H](C)[C@@H](O)[C@H](N)[C@@H]2O)C[C@@H]2O[C@](O)(C[C@@H](O)C[C@@H](O)[C@H](O)CC[C@@H](O)C[C@@H](O)CC(=O)O[C@H]1C)C[C@H](O)[C@H]2C(=O)O [AMPHOTERICIN B] on Candida tropicalis.
0.5

====

# Test system: Aspergillus niger
# Method: Antifungal activity against Aspergillus niger ATCC 9029 after 48 hrs by broth microdilution technique
# Type: functional
# Condition Context: ATCC 9029, 48 h
Each record here notes measured MIC.
Numeric only. Scale: µg/mL

Use the examples below as a reference point.
CN(C/C=C/C#CC(C)(C)C)Cc1cccc2ccccc12    0.5
C[C@@H]1[C@H](O)[C@@H](C)/C=C/C=C/C=C/C=C/C=C/C=C/C=C/[C@H](O[C@@H]2O[C@H](C)[C@@H](O)[C@H](N)[C@@H]2O)C[C@@H]2O[C@](O)(C[C@@H](O)C[C@@H](O)[C@H](O)CC[C@@H](O)C[C@@H](O)CC(=O)O[C@H]1C)C[C@H](O)[C@H]2C(=O)O    0.125

# return recorded MIC for input CC(=O)N1CCN(c2ccc(OCC3COC(Cn4ccnc4)(c4ccc(Cl)cc4Cl)O3)cc2)CC1 (centres undefined)
0.78

====

# Test system: Trypanosoma cruzi
# Method: Antitrypanosomal activity against Trypanosoma cruzi CL Brener after 5 days
# Type: functional
# Condition Context: 120 h, read-out: ID50 (the source's name)
Readout Kind: IC50
Express your answer as a number followed by its unit.

In one line, give reported IC50 of the entry C=CCNC(=S)N/N=C/C=C/c1ccc([N+](=O)[O-])o1 .
6.4 µM

====

Documented MIC across a set of compounds
# Test system: Trichophyton mentagrophytes
# Method: Antifungal activity against Trichophyton mentagrophytes ATCC 9972 after 48 hrs by broth microdilution technique
# Format: functional
# Condition Context: ATCC 9972, 48 h
The answer is to be given in mg/L; state only the numeric part.

CC(=O)N1CCN(c2ccc(OCC3COC(Cn4ccnc4)(c4ccc(Cl)cc4Cl)O3)cc2)CC1 (centres undefined)    0.025
CN(C/C=C/C#CC(C)(C)C)Cc1cccc2ccccc12    0.075

// next item, MIC requested
Please supply the value of reported MIC for the item C[C@@H]1[C@H](O)[C@@H](C)/C=C/C=C/C=C/C=C/C=C/C=C/C=C/[C@H](O[C@@H]2O[C@H](C)[C@@H](O)[C@H](N)[C@@H]2O)C[C@@H]2O[C@](O)(C[C@@H](O)C[C@@H](O)[C@H](O)CC[C@@H](O)C[C@@H](O)CC(=O)O[C@H]1C)C[C@H](O)[C@H]2C(=O)O
0.025

====

# Method: Selectivity index, ratio of IC50 for mouse J774 cells to ID50 for Trypanosoma cruzi tulahuen 2
# Assay type: toxicity, cell-based
# Condition Context: J774 cells versus Trypanosoma cruzi Tulahuen 2, read-out: Selectivity Index
Below: a set of entries, each annotated with reported selectivity ratio.
Respond using a number only.

Illustrative cases are given below, each with its answer.
CC1CS(=O)(=O)CCN1/N=C/c1ccc([N+](=O)[O-])o1 (centres undefined) [NIFURTIMOX]    41
CN(C/C=C/C#CC(C)(C)C)Cc1cccc2ccccc12 [TERBINAFINE]    19.9

Next, consider the following compound.
Find the measured selectivity ratio of C=CCNC(=S)N/N=C/C=C/c1ccc([N+](=O)[O-])o1 and report it.
24.4

====

Overview of recorded CC50 at 48 h for various compounds
# Method: Cytotoxicity against mouse J774 cells after 48 hrs by MTT assay
# Format: cell-based
# Condition Context: read-out: ID50

As a guide, the following entries are already answered.
CC1CS(=O)(=O)CCN1/N=C/c1ccc([N+](=O)[O-])o1 (centres undefined)    316 µM
CC(=O)N1CCN(c2ccc(OCC3COC(Cn4ccnc4)(c4ccc(Cl)cc4Cl)O3)cc2)CC1 (centres undefined)    < 100 µM
C=CCNC(=S)N/N=C/C=C/c1ccc([N+](=O)[O-])o1    200 µM

Annotate the compound CN(C/C=C/C#CC(C)(C)C)Cc1cccc2ccccc12 with its measured CC50 at 48 h.
339 µM

====

# Tested on: Aspergillus flavus
# Method: Antifungal activity against Aspergillus flavus ATCC 9170 after 48 hrs by broth microdilution technique
# Assay type: functional
# Condition Context: ATCC 9170, 48 h
MIC values for the compounds below.
The answer is to be given in mg/L; state only the numeric part.

Some solved entries appear below for comparison.
C[C@@H]1[C@H](O)[C@@H](C)/C=C/C=C/C=C/C=C/C=C/C=C/C=C/[C@H](O[C@@H]2O[C@H](C)[C@@H](O)[C@H](N)[C@@H]2O)C[C@@H]2O[C@](O)(C[C@@H](O)C[C@@H](O)[C@H](O)CC[C@@H](O)C[C@@H](O)CC(=O)O[C@H]1C)C[C@H](O)[C@H]2C(=O)O    0.25
CC(=O)N1CCN(c2ccc(OCC3COC(Cn4ccnc4)(c4ccc(Cl)cc4Cl)O3)cc2)CC1 (centres undefined)    1.56

Consider the record given below.
Tell me its MIC given CN(C/C=C/C#CC(C)(C)C)Cc1cccc2ccccc12 as the entry.
0.5
